From: patent US20150011566A1

tested.target: 5-HT1A receptors (Rattus norvegicus)
Construct: Intrinsic Activity at Native 5-HT1A Receptors; from tissue; host or cells: rat hippocampus membranes
protocol.notes: Binding of [3H]p-MPPF with GTP to 5-HT1A receptors; intrinsic activity (Ki low/Ki high)
assay.setup: read-out: Ki low; Table 13; antagonist radioligand [3H] p-MPPF in the presence of GTP
metric: pKi
Hey, just a heads up that pKi is the negative log base 10 of the concentration in molar.

I have this compound here, CCOc1ccccc1N1CCN(CCc2ccc3c(c2)OCO3)CC1 [LDT 8] , and I need its recorded pKi. 9.21

---

tested.target: 5-HT1A receptors (Rattus norvegicus, UniProt P19327)
Construct: Intrinsic Activity at Native 5-HT1A Receptors; from tissue; host or cells: rat hippocampus membranes
Sequence (P19327 whole entry): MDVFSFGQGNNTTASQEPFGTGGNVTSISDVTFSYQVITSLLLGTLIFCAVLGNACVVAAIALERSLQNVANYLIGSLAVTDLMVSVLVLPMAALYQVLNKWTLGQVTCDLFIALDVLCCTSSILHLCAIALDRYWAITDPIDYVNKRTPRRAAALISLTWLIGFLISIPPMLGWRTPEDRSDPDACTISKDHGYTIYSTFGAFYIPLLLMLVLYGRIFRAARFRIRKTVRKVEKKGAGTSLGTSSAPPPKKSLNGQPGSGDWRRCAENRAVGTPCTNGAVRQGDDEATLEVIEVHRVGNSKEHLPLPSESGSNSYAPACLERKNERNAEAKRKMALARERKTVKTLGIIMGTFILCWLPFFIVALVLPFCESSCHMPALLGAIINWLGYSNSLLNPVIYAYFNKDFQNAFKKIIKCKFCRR
protocol.notes: Binding of [3H]-8-OH-DPAT to 5-HT1A receptors (rat hippocampus membranes)
assay.setup: Ki, text b157
metric: Ki (nM)
All answers are understood in nM, so give the number only.

I have this molecule here, CCOc1ccccc1N1CCN(CCc2ccc3c(c2)OCO3)CC1 , and I need its recorded Ki. 0.0237
